Target: recombinant human LTA4 hydrolase (rhLTA4H) (Homo sapiens, UniProt P09960)
Sequence (P09960 whole entry): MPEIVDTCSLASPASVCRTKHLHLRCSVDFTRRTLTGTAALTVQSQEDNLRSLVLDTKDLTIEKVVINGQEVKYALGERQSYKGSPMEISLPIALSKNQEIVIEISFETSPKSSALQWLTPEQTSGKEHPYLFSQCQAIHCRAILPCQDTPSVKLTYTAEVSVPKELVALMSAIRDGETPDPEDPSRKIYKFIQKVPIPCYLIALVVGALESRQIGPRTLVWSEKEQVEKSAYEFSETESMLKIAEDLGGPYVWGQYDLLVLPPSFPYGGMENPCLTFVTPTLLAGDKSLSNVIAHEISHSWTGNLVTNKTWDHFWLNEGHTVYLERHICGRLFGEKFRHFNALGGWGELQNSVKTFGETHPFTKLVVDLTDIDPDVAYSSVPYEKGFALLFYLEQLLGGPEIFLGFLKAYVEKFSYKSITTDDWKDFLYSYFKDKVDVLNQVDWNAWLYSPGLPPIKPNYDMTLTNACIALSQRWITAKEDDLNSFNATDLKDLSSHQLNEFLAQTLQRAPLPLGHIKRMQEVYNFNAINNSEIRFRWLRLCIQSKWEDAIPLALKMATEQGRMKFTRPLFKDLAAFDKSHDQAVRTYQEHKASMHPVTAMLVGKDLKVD
Experiment: Recombinant Human LTA4 Hydrolase Assay for LTA4 Hydrolase Inhibitor Activity
Conditions: average of results obtained; LTB4 quantified by enzyme-linked immunoassay
Structures can show the parent of a compound that is named as a salt.
Reported pKi values follow for various compounds
Scale: negative log10 of molar concentration, which is what pKi denotes.

NC(=O)N[C@@H]1C[C@H]2CC[C@@H](C1)N2CCc1ccc(Oc2nc3cc(Cl)ccc3s2)cc1 [Example 202] : 6.90
CS(=O)(=O)N1CC2CCC(C1)N2Cc1ccc(Oc2nc3c(F)cccc3s2)cc1 [Example 258] : 8.10
CS(=O)(=O)N1C[C@@H]2C[C@H]1CN2CCOc1ccc(Oc2nc3ccccc3s2)cc1 [Example 49] : 7.70

### Prompt Requested read-out: pKi. Entry: c1ccc2sc(Oc3ccc(CCN4C[C@@H]5C[C@H]4CN5)cc3)nc2c1 [Example 7B, hydrochloride]
### Response 8.00

### Prompt Requested read-out: pKi. Entry: CS(=O)(=O)N1[C@@H]2CC[C@H]1C[C@H](NCCOc1ccc(Oc3nc4c(F)cccc4s3)cc1)C2 [Example 213]
### Response 7.70

### Prompt Requested read-out: pKi. Entry: CC(=O)N1C[C@@H]2C[C@H]1CN2CCc1ccc(Oc2nc3c(Cl)cccc3s2)cc1 [Example 253]
### Response 5.59

### Prompt Requested read-out: pKi. Entry: Cn1cnc(S(=O)(=O)N2CC3CN(Cc4ccc(Oc5nc6ccccc6s5)cc4)CC3C2)c1 (stereo not shown) [Example 122]
### Response 6.86

### Prompt Requested read-out: pKi. Entry: COCC(=O)N1C[C@@H]2C[C@H]1CN2CCc1cccc(Oc2nc3ccccc3s2)c1 [Example 43]
### Response 6.35

### Prompt Requested read-out: pKi. Entry: CC(=O)N1C[C@@H]2C[C@H]1CN2Cc1ccc(Oc2nc3c(F)cccc3s2)cc1 [Example 207]
### Response 8.22

These measurements were taken from patent US8344008B2.
